TGT: T1, Peptide-3 (cysteine pairing not given here; also: biotinylated, site not given here)
T1 peptide: IDFCMLYNWPICAG
ASSAY_OVERVIEW: ELISA, Fab on captured biotin-peptide
Where no end group is shown, it is not given here.
REPORTED_PROPERTY: pEC50
Convention used: pEC50 is expressed as -log10 of the molar concentration.

Give recorded pEC50. TBD-21 (HC F108A) (Fab, V domains shown, Fab; also called HC F108A mutant) VH: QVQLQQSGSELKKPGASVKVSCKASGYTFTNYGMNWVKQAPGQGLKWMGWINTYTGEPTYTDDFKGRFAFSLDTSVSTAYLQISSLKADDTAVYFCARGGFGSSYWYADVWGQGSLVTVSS VL: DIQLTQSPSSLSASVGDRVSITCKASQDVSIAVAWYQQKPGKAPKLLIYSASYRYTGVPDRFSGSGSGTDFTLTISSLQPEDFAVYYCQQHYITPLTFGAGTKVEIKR 7.91

Give recorded pEC50. TBD-1 wt (Fab, V domains shown, Fab; the heavy chain entry is VH-CH1; also called wild-type anti-TROP2 Fab (hRS7); TROP2 Fab) VH: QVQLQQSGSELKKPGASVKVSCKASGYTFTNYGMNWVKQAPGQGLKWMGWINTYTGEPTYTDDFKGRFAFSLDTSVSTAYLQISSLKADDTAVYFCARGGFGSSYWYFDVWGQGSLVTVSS VL: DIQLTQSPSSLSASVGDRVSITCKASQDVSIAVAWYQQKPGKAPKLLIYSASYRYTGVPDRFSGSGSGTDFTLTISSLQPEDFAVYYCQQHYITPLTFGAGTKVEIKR 7.89

Give recorded pEC50. TBD-11 (HC R98A) (Fab, V domains shown, Fab; also called HC R98A mutant) VH: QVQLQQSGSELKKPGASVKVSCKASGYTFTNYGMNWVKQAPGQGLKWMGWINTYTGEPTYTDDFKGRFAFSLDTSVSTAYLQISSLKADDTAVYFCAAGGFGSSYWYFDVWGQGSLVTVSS VL: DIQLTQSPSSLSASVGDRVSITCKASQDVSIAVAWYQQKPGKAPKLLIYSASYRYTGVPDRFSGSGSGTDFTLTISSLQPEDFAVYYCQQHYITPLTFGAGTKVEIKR 6.61

Give recorded pEC50. TBD-17 (HC S104A) (Fab, V domains shown, Fab; also called HC S104A mutant) VH: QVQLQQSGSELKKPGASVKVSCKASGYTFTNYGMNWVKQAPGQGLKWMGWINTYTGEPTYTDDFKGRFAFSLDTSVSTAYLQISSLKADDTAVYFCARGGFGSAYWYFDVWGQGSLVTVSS VL: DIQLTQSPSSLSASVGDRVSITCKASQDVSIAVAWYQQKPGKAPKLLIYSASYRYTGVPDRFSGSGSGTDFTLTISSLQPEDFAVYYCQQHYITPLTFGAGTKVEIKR 8.19
